target: O-acyltransferase (Oryctolagus cuniculus, UniProt G1SFD9); assay: Inhibition against acyl coenzyme A:cholesterol acyltransferase derived from rabbit intestine microsomes
Sequence (G1SFD9 1-524): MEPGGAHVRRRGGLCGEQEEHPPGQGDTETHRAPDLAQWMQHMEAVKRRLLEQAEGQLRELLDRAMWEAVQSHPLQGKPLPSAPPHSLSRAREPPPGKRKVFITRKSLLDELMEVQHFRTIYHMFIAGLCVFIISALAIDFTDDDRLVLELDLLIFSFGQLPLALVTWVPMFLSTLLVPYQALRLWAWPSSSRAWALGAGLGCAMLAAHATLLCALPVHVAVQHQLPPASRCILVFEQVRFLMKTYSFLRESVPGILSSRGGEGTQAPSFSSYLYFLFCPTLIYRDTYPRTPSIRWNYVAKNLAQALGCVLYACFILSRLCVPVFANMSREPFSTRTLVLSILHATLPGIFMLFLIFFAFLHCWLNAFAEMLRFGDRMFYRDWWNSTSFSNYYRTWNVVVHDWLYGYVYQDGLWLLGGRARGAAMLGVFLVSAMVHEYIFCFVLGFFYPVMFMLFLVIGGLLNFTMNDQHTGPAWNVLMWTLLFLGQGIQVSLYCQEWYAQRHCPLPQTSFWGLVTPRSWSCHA
Reported IC50 values for a set of molecules

[
  {
    "MOL": "Cc1cccc(OCCCn2cnc(-c3ccccc3)c2C)c1NC(=O)NCC(C)(C)C",
    "IC50 (µM)": 0.21
  },
  {
    "MOL": "CCCCCNC(=O)Nc1c(C)cccc1OCCCn1cnc(-c2ccccc2NS(C)(=O)=O)c1",
    "IC50 (µM)": 0.45
  },
  {
    "MOL": "Cc1cccc(OCCCn2cnc(-c3ccccc3)c2Cl)c1NC(=O)NCC(C)(C)C",
    "IC50 (µM)": 0.2
  },
  {
    "MOL": "CCCCCNC(=O)Nc1c(C)cccc1OCCCn1cnc(-c2ccccc2)c1CS(C)(=O)=O",
    "IC50 (µM)": 0.41
  },
  {
    "MOL": "CCCCCNC(=O)Nc1c(CC)cccc1OCCCn1cnc(-c2ccccc2)c1C",
    "IC50 (µM)": 0.08
  },
  {
    "MOL": "Cc1cccc(OCCCn2cnc(-c3ccccc3)c2)c1NC(=O)NCCC(C)C",
    "IC50 (µM)": 0.23
  },
  {
    "MOL": "CCCCCCNC(=O)Nc1c(C)cccc1OCCCn1cnc(-c2ccccc2)c1C",
    "IC50 (µM)": 0.084
  },
  {
    "MOL": "CCCCCNC(=O)Nc1c(C)cccc1OCCCn1cnc(-c2cc(OC)c(OC)c(OC)c2)c1",
    "IC50 (µM)": 0.51
  },
  {
    "MOL": "CCCCCNC(=O)Nc1c(NS(C)(=O)=O)cccc1OCCCn1cnc(-c2ccccc2)c1C",
    "IC50 (µM)": 0.14
  },
  {
    "MOL": "Cc1cccc(OCCCn2cnc(-c3ccccc3)c2C(C)C)c1NC(=O)NCCC(C)C",
    "IC50 (µM)": 0.28
  }
]

====

target: O-acyltransferase (Oryctolagus cuniculus, UniProt G1SFD9); experiment: Inhibition against acyl coenzyme A:cholesterol acyltransferase derived from rabbit intestine microsomes
Kindly apply the following: label 1 if IC50 is less than 200 nM, label 0 in every other case.

[
  {
    "COMPOUND": "CCCCCNC(=O)Nc1c(C)cccc1OCCCn1cnc(-c2ccccc2)c1",
    "LABEL": "label 0"
  },
  {
    "COMPOUND": "CCCCCNC(=O)Nc1c(NC)cccc1OCCCn1cnc(-c2ccccc2)c1C",
    "LABEL": "label 1"
  },
  {
    "COMPOUND": "CCCCCNC(=O)Nc1c(C)cccc1OCCCn1cnc(-c2ccc(F)cc2F)c1",
    "LABEL": "label 0"
  },
  {
    "COMPOUND": "CCCCCNC(=O)Nc1c(C)cccc1OCCCn1cnc(-c2ccccc2)c1CN(C)C",
    "LABEL": "label 0"
  },
  {
    "COMPOUND": "COCCCNC(=O)Nc1c(C)cccc1OCCCn1cnc(-c2ccccc2)c1C",
    "LABEL": "label 0"
  },
  {
    "COMPOUND": "CCc1c(-c2ccccc2)ncn1CCCOc1cccc(C)c1NC(=O)NCCC(C)C",
    "LABEL": "label 0"
  },
  {
    "COMPOUND": "CCCCNC(=O)Nc1c(C)cccc1OCCCn1cnc(-c2ccccc2)c1CO",
    "LABEL": "label 1"
  },
  {
    "COMPOUND": "CCCCCNC(=O)Nc1c(CN(C)C)cccc1OCCCn1cnc(-c2ccccc2)c1C",
    "LABEL": "label 0"
  },
  {
    "COMPOUND": "Cc1cccc(OCCCn2cnc(-c3ccccc3)c2CO)c1NC(=O)NCCC(C)C",
    "LABEL": "label 0"
  },
  {
    "COMPOUND": "CCCCCNC(=O)Nc1c(C)cccc1OCCCn1cnc(-c2ccccc2)c1C(N)=O",
    "LABEL": "label 1"
  },
  {
    "COMPOUND": "CCCCCNC(=O)Nc1c(C)cccc1OCCCn1cnc(-c2ccc(Cl)cc2)c1",
    "LABEL": "label 1"
  },
  {
    "COMPOUND": "CCCCCNC(=O)Nc1c(C)cccc1OCCCn1cnc(-c2ccccc2)c1CO",
    "LABEL": "label 0"
  },
  {
    "COMPOUND": "CCc1c(-c2ccccc2)ncn1CCCOc1cccc(C)c1NC(=O)NCC(C)(C)C",
    "LABEL": "label 0"
  },
  {
    "COMPOUND": "CCCCCNC(=O)Nc1c(C)cccc1COCCn1cnc(-c2ccccc2)c1C",
    "LABEL": "label 0"
  },
  {
    "COMPOUND": "CCOCCNC(=O)Nc1c(C)cccc1OCCCn1cnc(-c2ccccc2)c1C",
    "LABEL": "label 0"
  },
  {
    "COMPOUND": "Cc1cccc(OCCCn2cnc(-c3ccccc3)c2C)c1NC(=O)NCCC(C)C",
    "LABEL": "label 1"
  },
  {
    "COMPOUND": "Cc1cccc(OCCCn2cnc(-c3ccccc3)c2Cl)c1NC(=O)NCCC(C)C",
    "LABEL": "label 1"
  },
  {
    "COMPOUND": "CCCCCNC(=O)Nc1c(C)cccc1OCCCn1cnc(-c2ccc(NS(C)(=O)=O)cc2)c1",
    "LABEL": "label 0"
  },
  {
    "COMPOUND": "Cc1cccc(OCCCn2cnc(-c3ccccc3)c2C)c1NC(=O)NC1CCCCC1",
    "LABEL": "label 1"
  },
  {
    "COMPOUND": "CCCCCNC(=O)Nc1c(C)cccc1OCCCn1cnc(-c2ccccc2S(C)(=O)=O)c1",
    "LABEL": "label 1"
  },
  {
    "COMPOUND": "CCCCCNC(=O)Nc1c(C)cccc1OCCCn1cnc(-c2ccccc2)c1CCC",
    "LABEL": "label 1"
  },
  {
    "COMPOUND": "CCCCCNC(=O)Nc1c(C)cccc1[S+]([O-])CCCn1cnc(-c2ccccc2)c1C (stereo not given)",
    "LABEL": "label 0"
  },
  {
    "COMPOUND": "CCCCCNC(=O)Nc1c(C)cccc1OCC(O)Cn1cnc(-c2ccccc2)c1C (stereo not given)",
    "LABEL": "label 1"
  },
  {
    "COMPOUND": "CCCCCNC(=O)Nc1c(OCCCn2cnc(-c3ccccc3)c2C)cccc1[N+](=O)[O-]",
    "LABEL": "label 1"
  },
  {
    "COMPOUND": "CCCCCNC(=O)Nc1c(C)cccc1SCCCn1cnc(-c2ccccc2)c1C",
    "LABEL": "label 1"
  }
]
